Below, each entry is listed alongside its reported Gi1 hCB1.
target or test system: hCB1 (Homo sapiens, UniProt P21554)
Sequence (P21554 whole entry): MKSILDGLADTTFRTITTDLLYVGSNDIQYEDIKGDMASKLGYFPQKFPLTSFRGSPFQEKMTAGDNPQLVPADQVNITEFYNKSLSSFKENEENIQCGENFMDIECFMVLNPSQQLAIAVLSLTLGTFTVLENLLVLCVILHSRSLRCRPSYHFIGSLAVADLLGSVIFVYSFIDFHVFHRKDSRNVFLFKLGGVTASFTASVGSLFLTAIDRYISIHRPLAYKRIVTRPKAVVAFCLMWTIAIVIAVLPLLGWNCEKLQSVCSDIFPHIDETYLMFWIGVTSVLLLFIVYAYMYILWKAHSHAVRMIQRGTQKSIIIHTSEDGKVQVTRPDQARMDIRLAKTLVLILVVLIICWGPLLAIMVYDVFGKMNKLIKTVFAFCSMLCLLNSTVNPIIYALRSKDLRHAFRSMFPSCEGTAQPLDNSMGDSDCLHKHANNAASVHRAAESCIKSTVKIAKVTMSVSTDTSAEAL
test name: bioSensAll ebBRET signaling profiling, hCB1
Assay type: cell-based
Set-up: host or cells: HEK293SL cells, transient PEI transfection
conditions used: Log [Compound] (M) -12.8861; single replicate values, FigS6a

{"columns": ["compound", "Gi1 hCB1"],
 "data": [
  ["Cc1c(C(=O)OCC2CSc3ccccc3O2)cnn1Cc1ccccc1 (centres unmarked)", -1.469],
  ["COC(=O)[C@@H]1[C@@H]2CCC[C@@H]2CN1C(=O)c1cc(C)n(-c2cccc(Cl)c2)n1 (racemic)", 1.322],
  ["Cc1cc(C(=O)N(C)C(c2ccco2)c2ccco2)nn1-c1cccc(C(F)(F)F)c1", 1.415],
  ["Cc1cc(C(=O)NC(c2ccco2)c2ccco2)nn1-c1cccc(C(F)(F)F)c1", 2.17],
  ["COC(=O)C(NC(=O)c1cc(C)n(-c2cccc(C(F)(F)F)c2)n1)c1cccs1 (centres unmarked)", 1.261],
  ["Cc1nn(Cc2ccc(Cl)cc2)c(C)c1C(=O)OCC1CSc2ccccc2O1 (centres unmarked)", -2.879],
  ["Cc1cc(C(=O)N2CC3(CCC3)[C@@H]2[C@@H]2CCCO2)nn1-c1cccc(C(F)(F)F)c1", -0.04972],
  ["CC(=O)C(c1cccs1)N(C)C(=O)c1cc(C)n(-c2cccc(C(F)(F)F)c2)n1 (centres unmarked)", 3.496]
]}

---

target or test system: hCB1 (Homo sapiens)
test name: bioSensAll ebBRET signaling profiling, hCB1
Assay type: cell-based
Set-up: host or cells: HEK293SL cells, transient PEI transfection
conditions used: hCB1 GoB; normalized to CP-55,940
Below, each entry is listed alongside its reported Emax [95% CI].

{"columns": ["compound", "target or test system", "Emax [95% CI]"],
 "data": [
  ["Cc1cc(C(=O)N2CC3(CCC3)[C@H]2[C@@H]2CCCO2)nn1-c1cccc(C(F)(F)F)c1", "hCB1 (Homo sapiens)", "118 [94 – 143]"],
  ["COC(=O)[C@@H]1[C@@H]2CC[C@@H]2CN1C(=O)c1cc(C)n(-c2cccc(C(F)(F)F)c2)n1", "hCB1 (Homo sapiens)", "90 [87 – 91]"],
  ["COC(=O)[C@@H]1[C@@H]2CCC[C@@H]2CN1C(=O)c1cc(C)n(-c2cccc(Cl)c2)n1 (racemic)", "hCB1 (Homo sapiens)", "71 [67 – 75]"],
  ["COC(=O)[C@@H]1[C@@H]2CCC[C@@H]2CN1C(=O)c1cc(C)n(-c2cccc(C(F)(F)F)c2)n1", "hCB1 (Homo sapiens)", "100 [99 – 101]"],
  ["Cc1cc(C(=O)N2CC3(CCC3)[C@H]2[C@H]2CCCO2)nn1-c1cccc(C(F)(F)F)c1", "hCB1 (Homo sapiens)", "152 [94 – 208]"]
]}

---

target or test system: hCB1 (Homo sapiens, UniProt P21554)
test name: bioSensAll ebBRET signaling profiling, hCB1
Format: cell-based
Parameters: host or cells: HEK293SL cells, transient PEI transfection
conditions used: Log [Compound] (M) -7.14267; single replicate values, FigS6a
Below, each entry is listed alongside its reported GoB hCB1.

{"columns": ["molecule", "GoB hCB1"],
 "data": [
  ["Cc1cc(C(=O)N2CC3(CCC3)[C@@H]2[C@@H]2CCCO2)nn1-c1cccc(C(F)(F)F)c1", 0.7269],
  ["COC(=O)[C@@H]1[C@@H]2CCC[C@@H]2CN1C(=O)c1cc(C)n(-c2cccc(C(F)(F)F)c2)n1", 54.2273],
  ["Cc1cc(C(=O)N2CC3(CCC3)[C@@H]2[C@H]2CCCO2)nn1-c1cccc(C(F)(F)F)c1 (single isomer, unassigned)", 2.363],
  ["Cc1cc(C(=O)N2CC3(CCC3)[C@H]2[C@@H]2CCCO2)nn1-c1cccc(C(F)(F)F)c1", 9.719],
  ["Cc1cc(C(=O)NC(c2ccco2)c2ccco2)nn1-c1cccc(C(F)(F)F)c1", 60.3417],
  ["COC(=O)C(NC(=O)c1cc(C)n(-c2cccc(C(F)(F)F)c2)n1)c1cccs1 (centres unmarked)", 78.6487],
  ["Brc1cc2c(cc1Cc1noc(-c3cnn(CC4CC4)c3)n1)OCO2", -15.4926],
  ["Cn1nc(-c2nnc(C(C)(C)Oc3ccc(C(F)(F)F)cc3)o2)c2ccccc2c1=O", 18.1713],
  ["Cc1cc(C(=O)N2CC3(CCC3)[C@H]2[C@H]2CCCO2)nn1-c1cccc(C(F)(F)F)c1", 6.553],
  ["Cc1cc(C(=O)NC(c2ccccc2)c2ccco2)nn1-c1cccc(C#N)c1 (centres unmarked)", 15.689],
  ["Cc1nn(Cc2ccc(Cl)cc2)c(C)c1C(=O)OCC1CSc2ccccc2O1 (centres unmarked)", -6.777],
  ["COC(=O)C(NC(=O)c1cc(C)n(-c2cccc(F)c2)n1)c1cccs1 (centres unmarked)", 8.064],
  ["COC(=O)[C@@H]1[C@@H]2CC[C@@H]2CN1C(=O)c1cc(C)n(-c2cccc(C(F)(F)F)c2)n1", 15.0956],
  ["CC(=O)C(c1cccs1)N(C)C(=O)c1cc(C)n(-c2cccc(C(F)(F)F)c2)n1 (centres unmarked)", 2.399],
  ["COC(=O)[C@@H]1[C@@H]2CCC[C@@H]2CN1C(=O)c1cc(C)n(-c2cccc(Cl)c2)n1 (racemic)", 3.514],
  ["Cc1c(C(=O)OCC2CSc3ccccc3O2)cnn1Cc1ccccc1 (centres unmarked)", -5.024],
  ["Cc1cc(C(=O)NC(c2ccccc2)c2ccco2)nn1-c1cccc(C(F)(F)F)c1 (centres unmarked)", 21.1739]
]}

---

target or test system: hCB2 (Homo sapiens, UniProt P34972)
Sequence (P34972 whole entry): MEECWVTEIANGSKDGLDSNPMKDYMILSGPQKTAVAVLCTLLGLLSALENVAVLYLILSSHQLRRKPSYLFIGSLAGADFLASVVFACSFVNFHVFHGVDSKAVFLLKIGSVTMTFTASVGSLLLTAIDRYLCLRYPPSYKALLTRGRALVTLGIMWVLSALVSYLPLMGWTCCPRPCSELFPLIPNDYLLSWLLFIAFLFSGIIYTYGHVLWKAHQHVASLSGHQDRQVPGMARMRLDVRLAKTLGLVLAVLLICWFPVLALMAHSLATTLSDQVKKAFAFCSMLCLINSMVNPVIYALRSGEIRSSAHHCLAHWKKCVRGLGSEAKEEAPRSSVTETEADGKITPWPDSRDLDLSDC
test name: Tango β-arrestin-2 recruitment, HTLA cells, CB2R
Assay type: cell-based
Set-up: expressed in transfected cells; host or cells: HEK293 cells stably expressing human CB2R (Laboratory of Ken Mackie)
conditions used: hCB2; read-out: Tango ß-arrestin recruitment EC50
Could you please mark met for values of EC50 below 600 nM and not met for values at or above it?

{"columns": ["compound", "assigned category"],
 "data": [
  ["COC(=O)[C@@H]1[C@@H]2CCC[C@@H]2CN1C(=O)c1cc(C)n(-c2cccc(C(F)(F)F)c2)n1 [‘6439]", "met"],
  ["COC(=O)C(C)(NC(=O)c1cc(C)n(-c2cccc(C(F)(F)F)c2)n1)c1cccs1 (centres unmarked) [‘4042]", "met"],
  ["Cc1cc(C(=O)N2CC3(CCC3)C2C2CCCO2)nn1-c1cccc(C(F)(F)F)c1 (centres unmarked) [‘3737]", "not met"],
  ["COC(=O)[C@@H]1[C@@H]2CCC[C@@H]2CN1C(=O)c1cc(C)n(-c2cccc(Cl)c2)n1 (racemic) [‘10010]", "met"],
  ["COC(=O)C(NC(=O)c1cc(C)n(-c2cccc(C(F)(F)F)c2)n1)c1cccs1 (centres unmarked) [‘60154]", "not met"]
]}

---

target or test system: hCB1 (Homo sapiens)
test name: bioSensAll ebBRET signaling profiling, hCB1
Type: cell-based
Design: host or cells: HEK293SL cells, transient PEI transfection
conditions used: read-out: EC50 [95% CI]; hCB1 Barr2 + GRK2
pEC50: −log10 of the molar value.

{"columns": ["molecule", "pEC50"],
 "data": [
  ["COC(=O)C(C)(NC(=O)c1cc(C)n(-c2cccc(C(F)(F)F)c2)n1)c1cccs1 (centres unmarked)", 8.44],
  ["COC(=O)[C@@](C)(NC(=O)c1cc(C)n(-c2cccc(C(F)(F)F)c2)n1)c1cccs1", 8.66]
]}

---

target or test system: hCB1 (Homo sapiens, UniProt P21554)
test name: bioSensAll ebBRET signaling profiling, hCB1
Assay type: cell-based
Set-up: host or cells: HEK293SL cells, transient PEI transfection
conditions used: Barr2+GRK2 biosensor; Log [Compound] (M) -8.22186

{"columns": ["compound", "Barr2+GRK2 hCB1 response"],
 "data": [
  ["Cn1nc(-c2nnc(C(C)(C)Oc3ccc(C(F)(F)F)cc3)o2)c2ccccc2c1=O", 12.7465],
  ["Cc1c(C(=O)OCC2CSc3ccccc3O2)cnn1Cc1ccccc1 (stereo not drawn)", -10.8649],
  ["Brc1cc2c(cc1Cc1noc(-c3cnn(CC4CC4)c3)n1)OCO2", -13.7366],
  ["Cc1nc(CC2CC2)oc1-c1nc(Cc2cc3c(cc2Br)OCO3)no1", 10.513],
  ["Cn1nc(-c2nnc(C(C)(C)Oc3ccc(Cl)cc3)o2)c2ccccc2c1=O", -5.441],
  ["Cc1nn(Cc2ccc(Cl)cc2)c(C)c1C(=O)OCC1CSc2ccccc2O1 (stereo not drawn)", -7.036]
]}
